Assay: Kinetic solubility of compound
Type: physicochemical
Conditions: read-out: Kinetic_solubility
Label t when solubility kinetic is at or above 60 µM; otherwise label f.

**Query** hey, is solubility kinetic for this one >= 60 µM? CC(C)(C)OC(=O)N1CC[C@](C)(Nc2cc(-c3cnc(N)nc3)nc(N3CCOCC3)n2)C1
**Result** t

**Query** hey, is solubility kinetic for this one >= 60 µM? Nc1ncc(-c2nc(N3CCOCC3)nc(N[C@@]3(CO)CCN(C(=O)OCC(F)F)C3)c2F)cn1
**Result** f

**Query** hey, is solubility kinetic for this one >= 60 µM? COC(=O)N1CC[C@](CO)(Nc2nc(N3CCOCC3)nc(-c3cnc(N)nc3)c2F)C1
**Result** f

**Query** hey, is solubility kinetic for this one >= 60 µM? CC(C)(C)OC(=O)N1CC[C@](CO)(Nc2cc(-c3cnc(N)nc3)nc(N3CCOCC3)n2)C1
**Result** t

**Query** hey, is solubility kinetic for this one >= 60 µM? CNC(=O)N1CC[C@](C)(N2CCc3c(-c4cnc(N)nc4)nc(N4CCOCC4)nc32)C1
**Result** t

**Query** hey, is solubility kinetic for this one >= 60 µM? CC(C)(O)C(=O)N1CC[C@](C)(N2CCc3c(-c4cnc(N)nc4)nc(N4CCOCC4)nc32)C1
**Result** t

**Query** hey, is solubility kinetic for this one >= 60 µM? CC(C)(N)C(=O)N1CC[C@](C)(N2CCc3c(-c4cnc(N)nc4)nc(N4CCOCC4)nc32)C1
**Result** t

**Query** hey, is solubility kinetic for this one >= 60 µM? Nc1ncc(-c2cc(N[C@@]3(CO)CCN(C(=O)OCC(F)F)C3)nc(N3CCOCC3)n2)cn1
**Result** f

Hey, just so you know, these numbers are from ChEMBL document CHEMBL4706640.
